# System: Trypanosoma cruzi
# measurement.protocol: Antiprotozoal activity against Trypanosoma cruzi Tulahuen C2C4
# Assay type: functional, organism-based
Threshold 1000 nM. IC50 below it: Satisfied. IC50 at it or above: Not satisfied.

# molecule.smiles, experimental.system, group
data = [
    ("Cn1/c(=N\\N/C=C/c2sc3ccccc3[n+]2C)sc2ccccc21", "Trypanosoma cruzi", "Not satisfied"),
    ("Cn1/c(=N\\N/C=C/c2sc3ccc(Cl)cc3[n+]2C)sc2ccccc21", "Trypanosoma cruzi", "Not satisfied"),
    ("CN1/C(=C/C=C/c2sc3ccccc3[n+]2C)Sc2ccc(Cl)cc21", "Trypanosoma cruzi", "Satisfied"),
]

Take the compound CN1/C(=C/C=C/C=C/c2sc3ccc(Cl)cc3[n+]2C)Sc2ccc(Cl)cc21 and say whether its IC50 is less than 1000 nM. Not satisfied

Further, for CCN1/C(=C/C=C/c2oc3ccc(Cl)cc3[n+]2C)Sc2ccc(F)cc21 ? Satisfied
